- Test system: OVCAR-3
- assay.overview: NCI tumour cell line growth inhibition, 48 h
Calls of active or inactive are those of the source. No stated cut-off is given here; in the data, active = GI50 up to about 1.1 µM and inactive = higher.
Examples of compounds with documented GI50 follow.

{"smiles.repr": "CC(C)N1CSC(=S)N(Cc2ccccc2)C1", "GI50": "3.87 µM (inactive)"}
{"smiles.repr": "O=C1c2c(F)c(F)c(F)c(F)c2SC2=NCCN12", "GI50": "4.91 µM (inactive)"}
{"smiles.repr": "Cc1nn(-c2ccccc2)c2nc3c(c(C)nn3-c3ccccc3)c(-c3ccccc3Br)c12", "GI50": "> 100 µM (inactive)"}

---

- Test system: HCC 2998
- assay.overview: NCI tumour cell line growth inhibition, 48 h
The source made the active and inactive calls. No stated cut-off is given here; in the data, active = GI50 up to about 1.1 µM and inactive = higher.
value.kind: GI50

{"compound": "CN(C(=O)c1ccncc1)c1ccccc1", "value.kind": "GI50", "data.value": "> 100 µM (inactive)"}
{"compound": "CO/N=C(\\C(=O)N(C)n1cnnc1)c1csc(NC(c2ccccc2)(c2ccccc2)c2ccccc2)n1", "value.kind": "GI50", "data.value": "> 10 µM (inactive)"}
{"compound": "COC(=O)CCc1ccc2c(c1)CC1(C2)Cc2ccc3c(c2C1)CCC3 (stereo not drawn)", "value.kind": "GI50", "data.value": "52.4 µM (inactive)"}
{"compound": "CC1CC(c2ccc(Cl)cc2)=Nc2ccccc2S1 (stereo not drawn)", "value.kind": "GI50", "data.value": "> 100 µM (inactive)"}
{"compound": "O=C(CCC(=O)Nc1ccc(Cl)cc1)CC(=O)c1ccc(F)cc1", "value.kind": "GI50", "data.value": "> 100 µM (inactive)"}
{"compound": "O=C(/C=C/c1ccc(-c2ccccc2)cc1)c1ccccc1", "value.kind": "GI50", "data.value": "18.2 µM (inactive)"}
{"compound": "COc1ccccc1NC(=O)CC(=O)N1N=C(N2c3ccccc3Sc3ccccc32)CC1c1ccccc1 (stereo not drawn)", "value.kind": "GI50", "data.value": "> 100 µM (inactive)"}
{"compound": "COc1ccc2c3c([nH]c2c1[N+](=O)[O-])C(C)=NCC3", "value.kind": "GI50", "data.value": "> 100 µM (inactive)"}

Values were extracted from ChEMBL document CHEMBL1201862.
